Test system: differentiated SH-SY5Y cells
procedure_summary: Intracellular ATP levels, luciferin-luciferase bioluminescence
Type: cell-based, human
setup_conditions: drug at its EC20, 24 h
# key: entry, value: decrease of intracellular ATP levels relative to control cells
metric_name: decrease of intracellular ATP levels relative to control cells (%)

- structure_notation: "COc1cc(SC(C)C)c(OC)cc1CCN.Cl"
  units_symbol: "%"
  experimental_value: 17.8
- structure_notation: "COc1cc(SC(C)C)c(OC)cc1CCNCc1ccccc1OC.Cl"
  units_symbol: "%"
  experimental_value: 14.6
- structure_notation: "CCSc1cc(OC)c(CCNCc2ccccc2OC)cc1OC.Cl"
  units_symbol: "%"
  experimental_value: 16.0
- structure_notation: "CCSc1cc(OC)c(CCN)cc1OC.Cl"
  units_symbol: "%"
  experimental_value: 18.1
- structure_notation: "CCCSc1cc(OC)c(CCNCc2ccccc2OC)cc1OC.Cl"
  units_symbol: "%"
  experimental_value: 12.0
- structure_notation: "CCCSc1cc(OC)c(CCN)cc1OC.Cl"
  units_symbol: "%"
  experimental_value: 16.9

---

Test system: differentiated SH-SY5Y cells
procedure_summary: MTT reduction cytotoxicity assay
Assay type: cell-based, human
setup_conditions: Homo sapiens; differentiated SH-SY5Y cells, 24 h of exposure; mean (95% CI)
# key: entry, value: EC50
metric_name: EC50 (µM)

- molecule: "COc1cc(SC(C)C)c(OC)cc1CCN.Cl [2C-T-4]"
  metric_name: "EC50"
  experimental_value: 191
- molecule: "COc1cc(SC(C)C)c(OC)cc1CCNCc1ccccc1OC.Cl [25T4-NBOMe]"
  metric_name: "EC50"
  experimental_value: 36
- molecule: "CCSc1cc(OC)c(CCN)cc1OC.Cl [2C-T-2]"
  metric_name: "EC50"
  experimental_value: 306
- molecule: "CCCSc1cc(OC)c(CCN)cc1OC.Cl [2C-T-7]"
  metric_name: "EC50"
  experimental_value: 92.3
- molecule: "CCCSc1cc(OC)c(CCNCc2ccccc2OC)cc1OC.Cl [25T7-NBOMe]"
  metric_name: "EC50"
  experimental_value: 23.3
- molecule: "CCSc1cc(OC)c(CCNCc2ccccc2OC)cc1OC.Cl [25T2-NBOMe]"
  metric_name: "EC50"
  experimental_value: 46.8
